assayTarget: Amine oxidase [flavin-containing] B (Homo sapiens, UniProt P27338)
Sequence (P27338 whole entry): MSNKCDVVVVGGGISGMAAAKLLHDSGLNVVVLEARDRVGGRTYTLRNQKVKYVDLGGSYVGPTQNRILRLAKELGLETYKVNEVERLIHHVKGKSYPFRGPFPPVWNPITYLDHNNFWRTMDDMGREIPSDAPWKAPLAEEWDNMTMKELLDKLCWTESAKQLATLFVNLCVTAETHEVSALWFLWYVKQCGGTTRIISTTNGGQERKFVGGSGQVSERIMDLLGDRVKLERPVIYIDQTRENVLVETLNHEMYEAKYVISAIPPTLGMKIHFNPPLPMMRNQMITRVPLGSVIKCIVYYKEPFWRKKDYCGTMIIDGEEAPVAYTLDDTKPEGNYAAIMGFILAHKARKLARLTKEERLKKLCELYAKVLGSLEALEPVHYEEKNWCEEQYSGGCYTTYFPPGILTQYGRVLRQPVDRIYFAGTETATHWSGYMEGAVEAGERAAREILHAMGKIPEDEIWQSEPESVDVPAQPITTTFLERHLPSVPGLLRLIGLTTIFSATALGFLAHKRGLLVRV
assayProcedure: biochemical
Description: Inhibition of human recombinant microsomal MAO-B expressed in baculovirus-infected insect cells using p-tyramine as substrate preincubated for 15 mins followed by substrate addition measured for 20 mins by amplex red assay
Field: IC50. Provide a value for each of the compounds that follow.

C#CCN1CCC(CN(CCCOC)S(=O)(=O)c2ccc3ccccc3c2)CC1 :: > 100 µM
C#CCN1CCC(CNC(=O)c2ccc3ccccc3c2)CC1 :: 72.6 µM

Batch: IC50 for all items listed.
1. C#CCN1CCCC(CN(CCOC)C(=O)c2ccc3ccccc3c2)C1 (configuration not stated)
2. C#CCN1CCC(CN(CCOC)C(=O)c2ccc3ccccc3c2)CC1
3. C#CCN1CCCC(CNC(=O)c2ccc3ccccc3c2)C1 (configuration not stated)
4. C#CCN1CCC(CNS(=O)(=O)c2ccc3ccccc3c2)CC1
5. C#CCN1CCCC(CN(CCCOC)S(=O)(=O)c2ccc3ccccc3c2)C1 (configuration not stated)
6. C#CCN1CCC(CN(CCCOC)C(=O)c2ccc3ccccc3c2)CC1
7. C#CCN1CCC(CN(CCOC)S(=O)(=O)c2ccc3ccccc3c2)CC1

> 100 µM
> 100 µM
59.3 µM
53.9 µM
> 100 µM
> 100 µM
> 100 µM

###

Test system: MAO-B
assayProcedure: Selectivity index, ratio of LD50 for cytotoxicity against human SH-SY5Y cells to IC50 for human recombinant microsomal MAO-B expressed in baculovirus-infected insect cells
Type: toxicity
measurementContext: read-out: Ratio LD50/IC50
measurementLabel: selectivity ratio

GET /values?readout=selectivity ratio&item= `C#CCN1CCC(CNS(=O)(=O)c2ccc3ccccc3c2)CC1`
4

###

Field: selectivity ratio. Provide a value for each of the molecules that follow.
Tested on: BChE
assayProcedure: in vitro
measurementContext: human, SH-SY5Y cells
Description: Selectivity index, ratio of LD50 for cytotoxicity against human SH-SY5Y cells to IC50 for human recombinant Bche
One number for each entry.

Batch: selectivity ratio for all items listed.
1. C#CCN1CCCC(CN(CCCOC)S(=O)(=O)c2ccc3ccccc3c2)C1 (configuration not stated)
2. C#CCN1CCC(CNS(=O)(=O)c2ccc3ccccc3c2)CC1

1. 375
2. 90

###

Target or system Acetylcholinesterase (Mus musculus): recorded IC50 listed per item.

C#CCN1CCCC(CNC(=O)c2ccc3ccccc3c2)C1 (stereo unspecified) :: > 100 µM
C#CCN1CCCC(CNS(=O)(=O)c2ccc3ccccc3c2)C1 (stereo unspecified) :: > 100 µM
C#CCN1CCCC(CN(CCOC)C(=O)c2ccc3ccccc3c2)C1 (stereo unspecified) :: > 100 µM
C#CCN1CCCC(CN(CCCOC)C(=O)c2ccc3ccccc3c2)C1 (stereo unspecified) :: > 100 µM
C#CCN1CCC(CN(CCOC)S(=O)(=O)c2ccc3ccccc3c2)CC1 :: > 100 µM

Proceeding to the next molecule to report its IC50.
GET /values?readout=IC50&item= `C#CCN1CCC(CN(CCCOC)C(=O)c2ccc3ccccc3c2)CC1`
> 100 µM

###

Target sequence: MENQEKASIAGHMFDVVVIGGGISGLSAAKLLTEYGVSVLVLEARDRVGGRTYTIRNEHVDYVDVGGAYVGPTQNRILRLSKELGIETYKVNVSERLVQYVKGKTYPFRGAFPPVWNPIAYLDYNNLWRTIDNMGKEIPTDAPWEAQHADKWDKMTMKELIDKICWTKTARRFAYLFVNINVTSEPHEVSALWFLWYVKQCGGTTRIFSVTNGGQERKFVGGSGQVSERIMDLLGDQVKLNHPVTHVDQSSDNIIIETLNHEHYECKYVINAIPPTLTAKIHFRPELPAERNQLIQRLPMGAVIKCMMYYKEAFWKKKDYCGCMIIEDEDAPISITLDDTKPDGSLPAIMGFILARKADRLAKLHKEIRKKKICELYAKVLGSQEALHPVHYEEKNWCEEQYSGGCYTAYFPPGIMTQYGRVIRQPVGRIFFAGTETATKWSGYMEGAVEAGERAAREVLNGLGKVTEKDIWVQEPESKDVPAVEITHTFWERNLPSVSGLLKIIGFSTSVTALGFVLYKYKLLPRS
Field: IC50. Provide a value for each of the molecules that follow.

C#CCN1CCC(CNC(=O)c2ccc3ccccc3c2)CC1 :: > 100 µM
C#CCN1CCC(CN(CCCOC)C(=O)c2ccc3ccccc3c2)CC1 :: > 100 µM
C#CCN1CCC(CN(CCOC)S(=O)(=O)c2ccc3ccccc3c2)CC1 :: > 100 µM
C#CCN1CCC(CNS(=O)(=O)c2ccc3ccccc3c2)CC1 :: > 100 µM
C#CCN1CCCC(CN(CCOC)C(=O)c2ccc3ccccc3c2)C1 (configuration not stated) :: > 100 µM

Batch: IC50 for all items listed.
1. C#CCN1CCCC(CN(CCCOC)S(=O)(=O)c2ccc3ccccc3c2)C1 (configuration not stated)
2. C#CCN1CCCC(CNC(=O)c2ccc3ccccc3c2)C1 (configuration not stated)
3. C#CCN1CCC(CN(CCOC)C(=O)c2ccc3ccccc3c2)CC1
4. C#CCN1CCCC(CNS(=O)(=O)c2ccc3ccccc3c2)C1 (configuration not stated)

1. > 100 µM
2. > 100 µM
3. > 100 µM
4. > 100 µM

Batch: IC50 for all items listed.
1. C#CCN1CCCC(CN(CCOC)S(=O)(=O)c2ccc3ccccc3c2)C1 (configuration not stated)
2. C#CCN1CCC(CN(CCCOC)S(=O)(=O)c2ccc3ccccc3c2)CC1
3. C#CCN1CCCC(CN(CCCOC)C(=O)c2ccc3ccccc3c2)C1 (configuration not stated)

1: > 100 µM; 2: > 100 µM; 3: > 100 µM

###

assayProcedure: Cytotoxicity against human SH-SY5Y cells measured after 48 hrs by MTS assay
Format: toxicity, cell-based
measurementContext: read-out: LD50
measurementLabel: CC50 at 48 h (µM)
One number for each entry, in µM.

C#CCN1CCCC(CN(CCCOC)S(=O)(=O)c2ccc3ccccc3c2)C1 (configuration not stated) :: 48.1

Proceeding to the next molecule to report its CC50 at 48 h.
GET /values?readout=CC50 at 48 h&item= `C#CCN1CCC(CNS(=O)(=O)c2ccc3ccccc3c2)CC1`
242

###

assayTarget: Amine oxidase [flavin-containing] B (Homo sapiens, UniProt P27338)
assayProcedure: biochemical
measurementLabel: IC50

Batch: IC50 for all items listed.
1. C#CCN1CCCC(CN(CCOC)S(=O)(=O)c2ccc3ccccc3c2)C1 (stereo not drawn)
2. C#CCN1CCCC(CN(CCCOC)C(=O)c2ccc3ccccc3c2)C1 (stereo not drawn)
3. C#CCN1CCCC(CNS(=O)(=O)c2ccc3ccccc3c2)C1 (stereo not drawn)

["> 100 µM", "> 100 µM", "> 100 µM"]
